Property: FPF; scope: individual compounds
Assay: In vitro lung deposition, Multistage Liquid Impinger (MLI)
Assay type: physicochemical
Conditions: MLI2; example 6 capsule 10 mg/10 mg, MLI 100 L/min

[
  {
    "chemical_smiles": "CC[C@H]1OC(=O)[C@H](C)[C@@H](O[C@H]2C[C@@](C)(OC)[C@@H](O)[C@H](C)O2)[C@H](C)[C@@H](O[C@@H]2O[C@H](C)C[C@H](N(C)C)[C@H]2O)[C@](C)(OC)C[C@@H](C)C(=O)[C@H](C)[C@@H](O)[C@]1(C)O",
    "FPF [%]": 37.6
  },
  {
    "chemical_smiles": "NC[C@H]1O[C@H](O[C@H]2[C@H](O)[C@@H](O[C@H]3O[C@H](CO)[C@@H](O)[C@H](N)[C@H]3O)[C@H](N)C[C@@H]2N)[C@H](N)C[C@@H]1O",
    "FPF [%]": 44.5
  }
]
